// values below are reported Basal_Viability ATP HCT116 IC50/EC50
- Tested on: HCT116
- protocol details: cells
- Format: cell-based
- conditions used: assay number 25; basal
measurement kind: Basal_Viability ATP HCT116 IC50/EC50 (µM)

[[record]]
molecule = "COCC(=O)O[C@]1(CCN(C)CCCc2nc3ccccc3[nH]2)CCc2cc(F)ccc2[C@@H]1C(C)C [NCGC00161420-06]"
unit_annotation = "µM"
operator_symbol = "="
val = 12.3743

[[record]]
molecule = "CN(CCOc1ccc(CC2SC(=O)NC2=O)cc1)c1ccccn1 (stereo not drawn) [NCGC00095124-08]"
unit_annotation = "µM"
operator_symbol = ">"
val = 20

[[record]]
molecule = "CC(C)C[C@H](NC(=O)[C@H](CCc1ccccc1)NC(=O)CN1CCOCC1)C(=O)N[C@@H](Cc1ccccc1)C(=O)N[C@@H](CC(C)C)C(=O)[C@@]1(C)CO1 [NCGC00249613-02]"
unit_annotation = "µM"
operator_symbol = "="
val = 0.00558

[[record]]
molecule = "CC(C)(C)CC(C)(C)c1cc(Cc2cc(C(C)(C)CC(C)(C)C)cc(-n3nc4ccccc4n3)c2O)c(O)c(-n2nc3ccccc3n2)c1 [NCGC00167544-02]"
unit_annotation = "µM"
operator_symbol = ">"
val = 20

[[record]]
molecule = "Cc1nc2ccccc2n1Cc1ccc(Cl)cc1 [NCGC00160416-02]"
unit_annotation = "µM"
operator_symbol = "="
val = 1.219

[[record]]
molecule = "Clc1ccc(CCC(Cn2ccnc2)Sc2c(Cl)cccc2Cl)cc1 (stereo not drawn) [NCGC00179596-03]"
unit_annotation = "µM"
operator_symbol = "="
val = 2.0642

[[record]]
molecule = "CCCCCCCCCCCCCCCCC(C(=O)O)C(O)(CC(=O)O)C(=O)O (stereo not drawn) [NCGC00167547-02]"
unit_annotation = "µM"
operator_symbol = "="
val = 8.6847

[[record]]
molecule = "O=C(O)c1ccc(-n2nc(-c3ccccc3O)nc2-c2ccccc2O)cc1 [NCGC00263572-01]"
unit_annotation = "µM"
operator_symbol = "="
val = 0.4376

[[record]]
molecule = "CCCCCCCCCCCCCCCCOP(=O)([O-])OCC[N+](C)(C)C [NCGC00095169-05]"
unit_annotation = "µM"
operator_symbol = "="
val = 3.393

[[record]]
molecule = "Cc1ccc(C(=O)c2cc(O)c(O)c([N+](=O)[O-])c2)cc1 [NCGC00181767-03]"
unit_annotation = "µM"
operator_symbol = "="
val = 2.292

[[record]]
molecule = "CC[C@H]1CN2CCc3cc(OC)c(OC)cc3[C@@H]2C[C@@H]1C[C@H]1NCCc2cc(OC)c(OC)cc21 [NCGC00024379-16]"
unit_annotation = "µM"
operator_symbol = "="
val = 0.06147

[[record]]
molecule = "COc1cccc2c1C(=O)c1c(O)c3c(c(O)c1C2=O)C[C@@](O)(C(=O)CO)C[C@@H]3O[C@H]1C[C@H](N)[C@H](O[C@@H]2CCCCO2)[C@H](C)O1 [NCGC00344543-01]"
unit_annotation = "µM"
operator_symbol = "="
val = 0.9107

[[record]]
molecule = "COCC(C)N(C(=O)CCl)c1c(C)csc1C (stereo not drawn) [NCGC00163935-05]"
unit_annotation = "µM"
operator_symbol = ">"
val = 20

[[record]]
molecule = "COC(=O)C1=C(C)NC(C)=C(C(=O)O[C@@H]2CCCN(Cc3ccccc3)C2)[C@@H]1c1cccc([N+](=O)[O-])c1.Cl [NCGC00185768-01]"
unit_annotation = "µM"
operator_symbol = "="
val = 4.2797

[[record]]
molecule = "CCN(CC)CCOc1ccc(C(O)(Cc2ccc(Cl)cc2)c2ccc(C)cc2)cc1 (stereo not drawn) [NCGC00165907-03]"
unit_annotation = "µM"
operator_symbol = ">"
val = 20

